Target: T1, extracellular region of human PD-L1 protein (positions 19-238 of SEQ ID NO: 3) (human, UniProt Q9NZQ7 19-238)
T1 construct: also called Human PD-L1-his; antigen PD-L1
T1 sequence (Q9NZQ7 19-238): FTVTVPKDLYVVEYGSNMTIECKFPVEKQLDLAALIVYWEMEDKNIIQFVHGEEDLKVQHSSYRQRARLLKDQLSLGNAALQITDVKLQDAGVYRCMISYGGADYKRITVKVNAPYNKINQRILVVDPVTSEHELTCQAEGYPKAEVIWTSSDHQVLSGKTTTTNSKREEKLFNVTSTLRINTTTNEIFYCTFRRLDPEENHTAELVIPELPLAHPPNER
Test: ForteBio Octet (BLI), antibody immobilized, PD-L1 ECD 6.25-200 nM; antibody after purification
The entries below come with measured koff values attached.
Write the answer as a number in s⁻¹, unit excluded.

Some binders with recorded koff:
{"columns": ["binder", "koff / s⁻¹"],
 "data": [
  ["murine antibody 28B1 (A5), subclone 28B1-7 (antibody, V domains shown) VH: QVQLKQSGAELVKPGASVMLSCTASAFNIDDTYIHWVKQRPEQGLEWIGRIDPANGNTDYDPECQGKATITTDMSSNTAYLQLSSLTSEDTAVYFCARGLRLPGLVYWGRGTLVTVSA VL: DIQMTQTTSSLSASLGDRVTISCRASQDISNYLNWYQQKPDGTVKLLIYYTSILYSGVPSRFSGSGSGTDYSLTINTLEEEDIATYFCQQGNTLPWTFGGGTKLEIIR", 0.000723],
  ["murine antibody 18B4 (A4) (antibody, V domains shown, Mouse hybridoma antibody (subclone 18B4-2); Only variable domains printed; also called 18B4-2) VH: QVQLKQSGPELEKPGASVKISCKASGYSFTGYNMNWVKQSNGKSLEWIGNIDPYYGVTHYNQKFKGKATLTVDESSSTASMQLKSLTSEDSAIYYCARGIPFYGLDYWGQGTSVTVSS VL: QIVLTQSPAIMSASPGEKVTMTCGASSSVSFMHWYQQKSGTSPKRWIYDTSKLASGVPARFSGSGSGTSYSLTISSMEAEDAATYYCQQWNTNPFTFGSGTKLEIKR", 0.191]
]}

Please report the recorded koff for murine antibody 22B10 (A6) (antibody, V domains shown, Mouse hybridoma antibody (subclone 22B10-1); Only variable domains printed; also called 22B10-1) VH: QVQLKQSGAELVKPGASVELSCTASGFNIEDTYLHWVNQRPEQGLEWIGRIDPANGNTYYDPKFQGKATITTDTSSNTAYLQLSRLTSEDTAVYYCARGLRLPGFPYWGQGTLVTVSA VL: DIQMTQTPSSLSASLGDRVTISCRASQDISNYLSWYQQKPDGTVKLLIYYTSILHSGVPSRFSGSGSGTDYSLAISNLDQEDIATYFCQQGNTLPWTFGGGTKLEIKR . 0.000481

Where do the numbers come from? From patent US20220396624A1.
